system: T-47D breast; assay: NCI tumour cell line growth inhibition, 48 h
Reported TGI by item:
experimental_endpoint: TGI

compound | observed_measurement
COC(=O)CCn1cnc2c(SC)ncnc21 | > 100 µM
O=S(CCCl)c1c2ccccc2nc2ccccc12 (configuration not stated) | > 100 µM
O=C(Cc1ccc(Cl)c(Cl)c1)N(CCc1ccc(Cl)c(Cl)c1)CCN1CCCC1 | 16.1 µM
COC(=O)C1=C(C(=O)OC)C23C=C(C)C1C2=C(C)C1(CC1)[C@@](C)(O)C3=O (some centres not stated) | 6.4 µM
CC(C)NCC(O)c1ccc(OCc2ccccc2)c(OCc2ccccc2)c1-c1ccccc1 (configuration not stated) | 7.53 µM
COc1ccc2c(c1)CCC1C2CC[C@]2(C)/C(=N/OC(=O)Cc3ccccc3)CCC12 (some centres not stated) | 52.2 µM
O=C(/C=C\c1ccc(Cl)cc1Cl)c1cccs1 | 55.7 µM
Cc1n[nH]c(=O)n1/N=C/c1c[nH]c2ccccc12 | > 100 µM
C[C@@H]1C=C2C(=O)O[C@@H]3CC[C@H](C1)[C@]23O | 15.1 µM
O=[N+]([O-])c1cc(Cl)cc2cc(Cl)cnc12 | 97.2 µM
CC(C)NC(=O)OCCN=C1c2ccccc2CCc2ccccc21 | 66.1 µM
COC(=O)CCC/C=C\C[C@H]1C=CC(=O)/C1=C/C[C@@H](O)C/C=C\CC(F)(F)F | 16.3 µM
CC1(C)CN=C(Nc2cccc(C(F)(F)F)c2)S1 | > 100 µM
CCOP(=O)(C=C=C(C)C)OCC | > 100 µM
N/N=C1/CCCc2nonc21 | > 100 µM
COc1cc2c(c3c1c(=O)c1ccccc1n3C)C=CC1(CCCCC1)O2 | > 10 µM
CCCCn1c2c(n(CCCC)c1=S)-c1c(n(CCCC)c(=S)n1CCCC)SSSS2 | 1.82 µM
CCCc1nc2c(C)cc(-c3nc4ccccc4n3C)cc2n1Cc1ccc(-c2ccccc2C(=O)O)cc1 | > 100 µM
Cc1ccc(S(=O)(=O)N2CCc3ccc(O)c4c3C2Cc2cc(Cl)ccc2-4)cc1 (configuration not stated) | 19.7 µM
COc1nc2sc3c(c2c(=O)n1CCCSSCCCn1c(OC)nc2sc4c(c2c1=O)CCCC4)CCCC3 | > 100 µM
CS(=O)(=O)Nc1ccc(Nc2c3ccccc3nc3ccccc23)cc1 | 21 µM
Cc1ccc(S(=O)(=O)OC2C(C3COC(C)(C)O3)OC3OC(C)(C)OC32)cc1 (configuration not stated) | > 100 µM

The measurements presented in this section are drawn from PubChem BioAssay (NCI).
